Recorded values, source the RNAGym collection of RNA variant scans (doi:10.1126/science.aae0568).

B1: tRNA (parent)
chain: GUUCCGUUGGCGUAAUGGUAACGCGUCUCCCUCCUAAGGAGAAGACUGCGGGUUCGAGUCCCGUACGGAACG

- Variants of: B1
- experiment.notes: yeast fitness relative to wild type (ratio to wild type); higher = fitter; tRNA-Arg(CCU), competitive growth, 37 C, YPD
This sample holds only a part of the variants without activity.
Assign yeast fitness to each entry below.
Give bare numbers.

* C11A C27G C61G | 0.52

Hey, quick one: what's yeast fitness for each of these?
1. C30U C33A
2. A20U C24U A42U C46A C55U C61G
3. U3G G44A C66U
4. A43C C46A G48C G63A
5. G6A U13G A42C

1. 0.672
2. 0.518
3. 0.582
4. 0.62
5. 0.711

Hey, quick one: what's yeast fitness for each of these?
1. A21C A43U G50A G52U A69C
2. G25A C31U U64A
3. A40U G67U
4. C4G C46A
5. A20C C46G A70G
6. U3A A57U A65C A69C

1. 0.554
2. 0.642
3. 0.797
4. 0.915
5. 0.668
6. 0.593

Hey, quick one: what's yeast fitness for each of these?
1. G25C C34U
2. U13A A21G

[0.558, 1.04]

Hey, quick one: what's yeast fitness for each of these?
1. U19G C22U A70U
2. A43C G67A

[0.746, 0.685]
